Documented Ki across a set of compounds
Target: adenosine A2B receptor (A2BAR) (Homo sapiens, UniProt P29275)
Construct: gene ADORA2B; full-length receptor stably expressed in CHO cells (CHO-A2BAR); membranes or live cells; pull-down peptide SHANSVVNPIVY; about 60 kDa glycosylated, about 30 kDa after PNGase
Sequence (P29275 1-332): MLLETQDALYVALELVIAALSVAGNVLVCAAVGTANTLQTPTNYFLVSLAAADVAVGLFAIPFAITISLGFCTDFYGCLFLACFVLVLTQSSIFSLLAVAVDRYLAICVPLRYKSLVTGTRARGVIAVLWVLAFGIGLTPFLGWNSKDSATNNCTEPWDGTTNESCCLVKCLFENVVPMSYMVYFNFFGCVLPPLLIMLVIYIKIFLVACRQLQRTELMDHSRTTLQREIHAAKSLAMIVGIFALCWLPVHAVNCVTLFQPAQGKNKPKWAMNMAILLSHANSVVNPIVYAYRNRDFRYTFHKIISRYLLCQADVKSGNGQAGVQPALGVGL
Assay: [3H]PSB-603 radioligand displacement, CHO-A2BAR membranes
Type: binding
Details: read-out: pKi (pre-0 h) ^a (converted)
observable: Ki (µM)

1) C#CCCCC(=O)NS(=O)(=O)c1ccc(-c2nc3[nH]c(=O)n(CCC)c(=O)c3[nH]2)cc1 [3a]: 0.363
2) C#CCCCCCCCCC(=O)NS(=O)(=O)c1ccc(-c2nc3[nH]c(=O)n(CCC)c(=O)c3[nH]2)cc1 [3b]: 0.055
3) C#CCCCCCCCCC(=O)N(CC#N)S(=O)(=O)c1ccc(-c2nc3[nH]c(=O)n(CCC)c(=O)c3[nH]2)cc1 [4b]: 0.00603
4) C#CCCCC(=O)N(CC#N)S(=O)(=O)c1ccc(-c2nc3[nH]c(=O)n(CCC)c(=O)c3[nH]2)cc1 [4a]: 0.049
